Assay read-out CYP2C19 AC50 (half-maximal activity concentration); system under study: human CYP2C19 (Homo sapiens, UniProt P33261).
Sequence (P33261 whole entry): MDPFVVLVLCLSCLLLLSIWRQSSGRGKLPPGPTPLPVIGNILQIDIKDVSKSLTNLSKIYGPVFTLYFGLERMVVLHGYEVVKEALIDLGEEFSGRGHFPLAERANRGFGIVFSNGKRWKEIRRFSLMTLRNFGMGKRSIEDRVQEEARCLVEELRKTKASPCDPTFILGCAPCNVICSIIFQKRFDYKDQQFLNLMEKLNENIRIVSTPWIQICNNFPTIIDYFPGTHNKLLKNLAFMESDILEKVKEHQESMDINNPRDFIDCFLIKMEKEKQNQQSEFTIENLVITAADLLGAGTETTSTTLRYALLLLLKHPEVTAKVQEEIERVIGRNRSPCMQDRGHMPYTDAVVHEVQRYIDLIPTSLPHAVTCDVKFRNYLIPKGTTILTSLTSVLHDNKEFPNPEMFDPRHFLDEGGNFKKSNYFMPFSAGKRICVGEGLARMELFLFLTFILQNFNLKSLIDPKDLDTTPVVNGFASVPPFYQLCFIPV

CCCOc1ccc2c(c1)CC[C@@H]1[C@@H]2CC[C@]2(C)[C@@H](OC)CC[C@@H]12; Inconclusive inhibitor
C=C(C)C(=O)OCCCCCCCCCCOC(=O)C(=C)C [1,10-Decanediol dimethacrylate]; Inconclusive inhibitor
Cc1cccc(Nc2ccccc2C(=O)O)c1C; Inconclusive inhibitor
CC(=O)O[C@]1(C(C)=O)CC[C@H]2[C@@H]3C=C(Cl)C4=CC(=O)[C@@H]5C[C@@H]5[C@]4(C)[C@H]3CC[C@@]21C [Cyproterone acetate]; Inconclusive inhibitor
Oc1c(Cl)c(Cl)cc(Cl)c1Cl; Inconclusive inhibitor
CC1(C)[C@H](C(=O)OCc2cccc(Oc3ccccc3)c2)[C@@H]1C=C(Cl)Cl [cis-Permethrin in cyclohexane]; Inactive
CCCCCCCCCCCSCC(=O)O; Inconclusive inhibitor
CCCCCCCCS(=O)(=O)Cl [1-Octanesulfonyl chloride]; Inconclusive inhibitor
O=C([O-])CCCOc1ccc(Cl)cc1Cl.[Na+] [2,4-DB-sodium]; Inconclusive inhibitor
O=[N+]([O-])c1ccccc1CCl [2-Nitrobenzyl chloride]; Inconclusive inhibitor

State CYP2C19 AC50 (half-maximal activity concentration) on human CYP2C19 (Homo sapiens, UniProt P33261). Entry: CCC(=O)Oc1ccc(/C(CC)=C(\CC)c2ccc(OC(=O)CC)cc2)cc1 [Diethylstilbestrol dipropionate]
Inactive

State CYP2C19 AC50 (half-maximal activity concentration) on human CYP2C19 (Homo sapiens, UniProt P33261). Entry: CC(Oc1cc(Cl)c(Cl)cc1Cl)C(=O)O (centres unmarked)
Inactive

State CYP2C19 AC50 (half-maximal activity concentration) on human CYP2C19 (Homo sapiens, UniProt P33261). Entry: O=C(O)c1cccc(C(=O)O)c1
Inactive

State CYP2C19 AC50 (half-maximal activity concentration) on human CYP2C19 (Homo sapiens, UniProt P33261). Entry: Cc1cc(O)cc(C)c1Cl
Inconclusive inhibitor

State CYP2C19 AC50 (half-maximal activity concentration) on human CYP2C19 (Homo sapiens, UniProt P33261). Entry: CCCCCCCCCCCCCC[N+](C)(C)Cc1ccccc1.O.O.[Cl-]
Inactive

* * *

- measurement-target: human CYP1A2 (Homo sapiens, UniProt P05177)
- Sequence (P05177 whole entry): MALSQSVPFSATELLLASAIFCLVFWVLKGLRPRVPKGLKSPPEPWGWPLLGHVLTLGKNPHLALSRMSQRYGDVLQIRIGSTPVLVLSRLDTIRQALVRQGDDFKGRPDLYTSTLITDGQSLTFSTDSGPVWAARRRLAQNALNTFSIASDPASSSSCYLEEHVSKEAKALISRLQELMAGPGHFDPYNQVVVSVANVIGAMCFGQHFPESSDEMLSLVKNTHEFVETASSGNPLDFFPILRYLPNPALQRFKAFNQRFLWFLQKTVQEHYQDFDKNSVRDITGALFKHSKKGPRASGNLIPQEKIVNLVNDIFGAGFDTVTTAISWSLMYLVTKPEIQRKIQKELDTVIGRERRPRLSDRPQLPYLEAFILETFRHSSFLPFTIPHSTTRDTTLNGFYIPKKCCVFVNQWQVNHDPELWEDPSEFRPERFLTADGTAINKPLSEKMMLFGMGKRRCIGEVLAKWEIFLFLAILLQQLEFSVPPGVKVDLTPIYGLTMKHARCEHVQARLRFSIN
- test-protocol: biochemical
- recorded-conditions: CYP1A2 AC50 (half-maximal activity concentration)
Structures can show the parent of a compound that is named as a salt.
Lab note - cut at 30 µM for AC50: 1 if strictly below, -1 if not.

Report whether reported AC50 is lower than 30 µM (strictly) for O=[N+]([O-])c1c(Cl)c(Cl)c(Cl)c(Cl)c1Cl
1

Report whether reported AC50 is lower than 30 µM (strictly) for CC(C)OC(=O)c1ccccc1C(=O)OC(C)C [Diisopropyl phthalate]
1

Report whether reported AC50 is lower than 30 µM (strictly) for COC(=O)N(OC)c1ccccc1COc1ccn(-c2ccc(Cl)cc2)n1
1

Report whether reported AC50 is lower than 30 µM (strictly) for c1ccc(CSCc2ccccc2)cc1 [Benzyl sulfide]
1

Report whether reported AC50 is lower than 30 µM (strictly) for O=C(O)c1ccc(Cl)c(Cl)c1
-1

Report whether reported AC50 is lower than 30 µM (strictly) for CC(COc1ccccc1)NC(C)C(O)c1ccc(O)cc1 (centres unmarked) [Isoxsuprine hydrochloride]
1

Report whether reported AC50 is lower than 30 µM (strictly) for Oc1ccc2[nH]cc(CCCCN3CC=C(c4ccccc4)CC3)c2c1
1

Report whether reported AC50 is lower than 30 µM (strictly) for Nc1c(Br)cc([N+](=O)[O-])cc1Br
1

Report whether reported AC50 is lower than 30 µM (strictly) for O=C(c1ccccc1)C1CCCCC1
-1

Report whether reported AC50 is lower than 30 µM (strictly) for O=C1C(=O)c2cccc3cccc1c23
1

Report whether reported AC50 is lower than 30 µM (strictly) for CC(=O)[C@H]1CC[C@H]2[C@@H]3CC[C@H]4C[C@](C)(O)CC[C@]4(C)[C@H]3CC[C@]12C
1

Report whether reported AC50 is lower than 30 µM (strictly) for CCOC(=O)CCCCCCCCC(=O)OCC [Diethyl decanedioate]
-1

Report whether reported AC50 is lower than 30 µM (strictly) for O=C(/C=C/c1ccccc1)OCc1ccccc1 [Benzyl cinnamate]
1

Report whether reported AC50 is lower than 30 µM (strictly) for CC(C)(C)c1cc([N+](=O)[O-])cc([N+](=O)[O-])c1O
-1

Report whether reported AC50 is lower than 30 µM (strictly) for Cc1c(Cl)cccc1Nc1ccccc1C(=O)O
-1

Report whether reported AC50 is lower than 30 µM (strictly) for CCCCCCC(C=O)=Cc1ccccc1
1

Report whether reported AC50 is lower than 30 µM (strictly) for O=C(O)Cc1sc(-c2ccccc2)nc1-c1ccc(Cl)cc1
1

Report whether reported AC50 is lower than 30 µM (strictly) for CCC(C)c1ccc(O)cc1 (centres unmarked)
-1

Report whether reported AC50 is lower than 30 µM (strictly) for Cc1cccc2sc(N)nc12
1

Report whether reported AC50 is lower than 30 µM (strictly) for CCNc1nc(NCC)nc(SC)n1
1

* * *

- measurement-target: human CYP1A2 (Homo sapiens, UniProt P05177)
- test-protocol: biochemical
Where a name gives a salt, the structure may show the parent alone.
Would you kindly list AC50 for each of these compounds?

Give the value of AC50 reported for the following: OC1(c2ccc(Cl)c(C(F)(F)F)c2)CCN(CCCC(c2ccc(F)cc2)c2ccc(F)cc2)CC1
29.9 µM

Give the value of AC50 reported for the following: CC(C)(c1ccccc1)c1ccccc1
58.8 µM

Give the value of AC50 reported for the following: CCOC(=O)Cc1cccc2ccccc12 [Ethyl 1-naphthaleneacetate]
16.5 µM

Give the value of AC50 reported for the following: COC(=O)C(C)Oc1ccc(Oc2ncc(C(F)(F)F)cc2Cl)cc1 (centres unmarked)
46.8 µM

Give the value of AC50 reported for the following: COC(=O)c1cc(Cl)ccc1[N+](=O)[O-] [Methyl 5-chloro-2-nitrobenzoate]
7.13 µM

Give the value of AC50 reported for the following: CCCCCNC(=N)N/N=C/c1c[nH]c2ccc(OC)cc12 [Tegaserod maleate]
4.12 µM

Give the value of AC50 reported for the following: Cc1cc(O)c(Cl)c(C)c1Cl
14.4 µM

Give the value of AC50 reported for the following: CCN(CC)c1ccc(C=O)cc1
5.66 µM

Give the value of AC50 reported for the following: CCOC(=O)COC(=O)c1ccccc1C(=O)OCC [Ethyl phthalyl ethyl glycolate]
7.68 µM

Give the value of AC50 reported for the following: O=C1c2ccccc2CCc2ccccc21
1.58 µM

Give the value of AC50 reported for the following: COc1ccccc1OC(=O)Oc1ccccc1OC [Guaiacol carbonate]
6.41 µM

Give the value of AC50 reported for the following: O=C1c2ccccc2C(=O)c2c(Cl)cccc21
0.05 µM

Give the value of AC50 reported for the following: COc1cccc(O)c1
49.3 µM

Give the value of AC50 reported for the following: CCC1OCC(COc2ccc(Oc3ccccc3)cc2)O1 (centres unmarked)
30.8 µM

Give the value of AC50 reported for the following: Clc1nnc(Cl)c2ccccc12
9.06 µM

Give the value of AC50 reported for the following: O=C(OCCc1ccccc1)c1ccccc1 [2-Phenylethyl benzoate]
17.1 µM

Give the value of AC50 reported for the following: Cn1cc(C(=O)[C@@H]2CCc3nc[nH]c3C2)c2ccccc21 [Ramosetron hydrochloride]
17.4 µM

Give the value of AC50 reported for the following: CCCCOC(=O)COc1ccc(Cl)cc1Cl
35.7 µM

Give the value of AC50 reported for the following: O=c1c2ccccc2oc2ccccc12
0.5 µM

Give the value of AC50 reported for the following: Cc1ccnc2ccccc12 [Lepidine]
38.4 µM

* * *

- measurement-target: human CYP1A2 (Homo sapiens, UniProt P05177)
- test-protocol: biochemical
- recorded-conditions: IC50 CYP1A2 assay
Would you kindly list IC50 for each of these compounds?
Note: unit nM is implicit; provide only the numeric part.

Give the value of IC50 reported for the following: Cc1cc(C)c(N)cc1C [2,4,5-Trimethylaniline]
790

Give the value of IC50 reported for the following: Cc1cc(-c2ccc(N)c(C)c2)ccc1N [3,3'-Dimethylbenzidine]
640

Give the value of IC50 reported for the following: c1ccc2[nH]c(-c3cscn3)nc2c1 [thiabendazole, reference compound]
2100

* * *

Would you kindly list IC50 for each of these compounds?
- measurement-target: UniProtKB P11712
- Sequence (P11712 whole entry): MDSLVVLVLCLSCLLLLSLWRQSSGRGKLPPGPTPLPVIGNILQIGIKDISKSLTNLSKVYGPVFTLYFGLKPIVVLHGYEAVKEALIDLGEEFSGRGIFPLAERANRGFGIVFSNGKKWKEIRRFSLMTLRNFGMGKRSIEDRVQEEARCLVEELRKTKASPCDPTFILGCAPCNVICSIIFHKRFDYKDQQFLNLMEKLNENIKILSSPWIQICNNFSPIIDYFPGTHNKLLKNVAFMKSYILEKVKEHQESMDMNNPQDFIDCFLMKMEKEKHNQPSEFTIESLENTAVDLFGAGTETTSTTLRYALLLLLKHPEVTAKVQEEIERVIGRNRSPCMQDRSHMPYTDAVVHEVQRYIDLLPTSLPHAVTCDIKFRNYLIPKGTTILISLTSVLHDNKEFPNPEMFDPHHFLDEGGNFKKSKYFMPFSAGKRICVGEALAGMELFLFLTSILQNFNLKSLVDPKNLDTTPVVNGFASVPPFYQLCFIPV
- test-protocol: biochemical
Note: unit µM is implicit; provide only the numeric part.

Give the value of IC50 reported for the following: O=C(OCC(COC(=O)c1cccnc1)(COC(=O)c1cccnc1)COC(=O)c1cccnc1)c1cccnc1
3.44

Give the value of IC50 reported for the following: c1ccc(CCCc2ccncc2)cc1
1.86

Give the value of IC50 reported for the following: O=C1c2ccccc2C(=O)c2c(Cl)cccc21
12.6

Give the value of IC50 reported for the following: CCOP(=O)(OCC)OC(=CCl)c1ccc(Cl)cc1Cl
31.9

Give the value of IC50 reported for the following: CN(C/C=C/C#CC(C)(C)C)Cc1cccc2ccccc12 [terbinafine, reference compound]
15.5

Give the value of IC50 reported for the following: CCOC(=O)c1c(N)sc2c1CCN(Cc1ccccc1)C2
6.91

Give the value of IC50 reported for the following: CCN(CC)Cc1nccn1-c1ccc([N+](=O)[O-])cc1C(=O)c1ccccc1Cl
25.1

Give the value of IC50 reported for the following: c1ccc2c(c1)-c1cccc3cccc-2c13
67.8

Give the value of IC50 reported for the following: Nc1ccc(C(=O)N2CC3CC(CN(Cc4ccccc4)C3)C2)cc1 [Ambasilide]
22.7

Give the value of IC50 reported for the following: CCOC(=O)COc1ccc2c(c1)C[C@@H](NC[C@H](O)c1cccc(Cl)c1)CC2
31

Give the value of IC50 reported for the following: C#Cc1ccc(-c2ccccc2F)cc1
16.1

Give the value of IC50 reported for the following: CCOP(=S)(OCC)Oc1cnc2ccccc2n1
0.91

Give the value of IC50 reported for the following: CCCCC(CC)CN1C(=O)C2C3C=CC(C3)C2C1=O (centres unmarked)
10.1

Give the value of IC50 reported for the following: COP(=S)(OC)SCN1C(=O)c2ccccc2C1=O
2.04

Give the value of IC50 reported for the following: CCOP(=S)(NC(C)C)Oc1ccccc1C(=O)OC(C)C (centres unmarked)
1.44

Give the value of IC50 reported for the following: COP(=S)(OC)Oc1ccc(SC)c(C)c1
6.1

Give the value of IC50 reported for the following: C=CC(=O)OCCn1c(=O)n(CCOC(=O)C=C)c(=O)n(CCOC(=O)C=C)c1=O
35.7

Give the value of IC50 reported for the following: CCOP(=S)(OCC)SCn1nnc2ccccc2c1=O
0.57

Give the value of IC50 reported for the following: CC(C)OC(=O)c1cc(C(=O)OC(C)C)cc([N+](=O)[O-])c1
1.06

Give the value of IC50 reported for the following: CCCN(CCc1cccs1)[C@H]1CCc2c(O)cccc2C1
16.1
